Molecular target: CRFR^2 expressed by A7r5 cells, P47866
Sequence (P47866 20-411): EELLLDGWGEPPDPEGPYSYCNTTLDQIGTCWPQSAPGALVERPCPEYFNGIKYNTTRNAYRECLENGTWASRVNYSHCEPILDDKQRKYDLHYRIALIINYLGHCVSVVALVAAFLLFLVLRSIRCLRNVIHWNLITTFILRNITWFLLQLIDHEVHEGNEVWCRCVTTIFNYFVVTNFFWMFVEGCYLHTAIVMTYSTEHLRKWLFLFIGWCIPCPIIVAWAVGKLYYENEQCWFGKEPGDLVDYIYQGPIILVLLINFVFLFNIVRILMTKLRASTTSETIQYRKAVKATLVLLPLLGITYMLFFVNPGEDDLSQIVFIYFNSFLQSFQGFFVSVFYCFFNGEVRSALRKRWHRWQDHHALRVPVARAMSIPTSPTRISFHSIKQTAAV
Assay: cell-based or functional assay
No end group written: not given here. *: point of attachment. Acm = CC(=O)NC*
Attribute Measured: cAMP A7r5 (EC50, nM)

- hUcn 2 prohormone (here or on the partner: amidated at the C-terminus) peptide: IPTFQLRPQNSPQTTPRPAASESPSAAPTWPWAAQSHCSPTRHPGSRIVLSLDVPIGLLQILLEQARARAAREQATTNARILARV: 2.3
- RIVLSLDVPIGLLQILLEQARARAAREQATTNARILARV-NH2 [R^0-hUcn 2]: 0.027

(P) HPGSRIVLSLDVPIGLLQILLEQARARAAREQATTNARILARV-NH2 [SRP (HPGSR-hUcn 2)]
(Q) IVLSLDVPIGLLQILLEQARARAAREQATTNARILARV-OH [hUcn 2-OH]
(R) mUcn 2 prohormone (here or on the partner: amidated at the C-terminus) peptide: TPIPTFQLLPQNSLETTPSSVTSESSSGTTTGPSASWSNSKASPYLDTRVILSLDVPIGLLRILLEQARYKAARNQAATNAQILAHV
(S) IVLSLDVPIGLLQILLEQARARAAREQATTNARILARVG-OH [hUcn 2-G-OH]
(T) [Cys^1, 51(Acm)]-hUcn2(1-51)-OH) (peptide) peptide: C(Acm)SPTRHPGSRIVLSLDVPIGLLQILLEQARARAAREQATTNARILARVGHC(Acm)-OH
Task: Rank descending by cAMP A7r5 (EC50, nM). Present the labels in the sequence the task asks for.
Result: Q, T, S, R, P
